Hi there, I'd appreciate the recorded pIC50 for every entry that follows.
Molecular target: phosphorylated active hERK2 enzyme (Homo sapiens (Human), UniProt P28482)
Sequence (P28482 whole entry): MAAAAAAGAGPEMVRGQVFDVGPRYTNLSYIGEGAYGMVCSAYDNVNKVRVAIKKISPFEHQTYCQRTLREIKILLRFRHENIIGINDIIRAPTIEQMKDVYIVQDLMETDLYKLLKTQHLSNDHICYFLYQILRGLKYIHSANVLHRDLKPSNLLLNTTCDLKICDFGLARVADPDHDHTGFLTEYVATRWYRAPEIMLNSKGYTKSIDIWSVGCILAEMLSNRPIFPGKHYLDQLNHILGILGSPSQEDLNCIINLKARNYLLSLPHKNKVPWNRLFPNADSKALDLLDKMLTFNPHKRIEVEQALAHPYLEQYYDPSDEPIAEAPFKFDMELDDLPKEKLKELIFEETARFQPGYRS
Assay: Active Human ERK2 (hERK2) Activity Assay (IMAP-FP)
Assay type: biochemical
Details: Table 6, 0.5 nM hERK2, 30 μM ATP, 10 point titration, read-out: AERK2 IC50
Notebook: values listed as pIC50 are -log10 of the concentration (mol/L).

Task item: Look up phosphorylated active hERK2 enzyme (Homo sapiens (Human), UniProt P28482) data: pIC50 of COC[C@@H](NC(=O)Nc1cc2[nH]nc(N3CC(O)C3)c2cn1)c1ccccc1 [Example 80] , then report it.
Reply: 8.26

Task item: Look up phosphorylated active hERK2 enzyme (Homo sapiens (Human), UniProt P28482) data: pIC50 of C[C@@H](NC(=O)Nc1cc2[nH]nc(N)c2c(Cl)n1)c1ccccc1 [Example 444] , then report it.
Reply: 8.92

Task item: Look up phosphorylated active hERK2 enzyme (Homo sapiens (Human), UniProt P28482) data: pIC50 of CC12CCC(O1)C1CN(c3n[nH]c4cc(NC(=O)N[C@@H](c5ccc(F)cc5)C(C)(C)O)ncc34)CC12 (stereo partly drawn) [Example 377] , then report it.
Reply: 8.64

Task item: Look up phosphorylated active hERK2 enzyme (Homo sapiens (Human), UniProt P28482) data: pIC50 of COC(=O)Nc1n[nH]c2cc(NC(=O)N[C@H](C)c3ccc(Cl)c(C)c3)ncc12 [Example 304] , then report it.
Reply: 8.47

Task item: Look up phosphorylated active hERK2 enzyme (Homo sapiens (Human), UniProt P28482) data: pIC50 of C[C@@H](NC(=O)Nc1cc2[nH]nc(NC3CCC(F)(F)CC3)c2cn1)c1ccccc1 [Example 195] , then report it.
Reply: 7.99

Task item: Look up phosphorylated active hERK2 enzyme (Homo sapiens (Human), UniProt P28482) data: pIC50 of CC(C)(O)[C@@H](NC(=O)Nc1cc2[nH]nc(NC(=O)N3CCC(F)(F)CC3)c2cn1)c1ccc(F)cc1 [Example 132] , then report it.
Reply: 8.31

Task item: Look up phosphorylated active hERK2 enzyme (Homo sapiens (Human), UniProt P28482) data: pIC50 of C[C@H]1CN(c2n[nH]c3cc(NC(=O)N[C@@H](c4ccccc4)C(C)(C)O)ncc23)C[C@H](C(F)(F)F)O1 [Example 102] , then report it.
Reply: 8.57

Task item: Look up phosphorylated active hERK2 enzyme (Homo sapiens (Human), UniProt P28482) data: pIC50 of COC(=O)Nc1n[nH]c2cc(NC(=O)N[C@H](C)c3ccccc3)nc(C)c12 [Example 338] , then report it.
Reply: 7.79

Task item: Look up phosphorylated active hERK2 enzyme (Homo sapiens (Human), UniProt P28482) data: pIC50 of C[C@@H](O)[C@@H](NC(=O)Nc1cc2[nH]nc(N3CCc4scnc4C3)c2cn1)c1ccccc1 [Example 64] , then report it.
Reply: 8.25

Task item: Look up phosphorylated active hERK2 enzyme (Homo sapiens (Human), UniProt P28482) data: pIC50 of CCNc1n[nH]c2cc(NC(=O)N[C@H](COC(F)F)c3ccccc3)ncc12 [Example 353] , then report it.
Reply: 9.22

Task item: Look up phosphorylated active hERK2 enzyme (Homo sapiens (Human), UniProt P28482) data: pIC50 of C[C@@H](NC(=O)Nc1cc2[nH]nc(N)c2cn1)c1ccc(F)c(Cl)c1 [Example 271] , then report it.
Reply: 7.76

Task item: Look up phosphorylated active hERK2 enzyme (Homo sapiens (Human), UniProt P28482) data: pIC50 of C[C@@H](NC(=O)Nc1cc2[nH]nc(NC3CC(N)C3)c2cn1)c1ccccc1 (stereo partly drawn) [Example 216] , then report it.
Reply: 7.92
